Documented solubility across a set of compounds
Conditions: 25 °C
The reply should be a number in nM, with the unit left off.

Worked cases, solubility given:
c1ccc2cc3c(cc2c1)-c1cccc2cccc-3c12	3.17
Cc1c2ccccc2c2ccc3cccc4ccc1c2c43	3

Now for the compound whose solubility we want.
Challenge: Which solubility reading was recorded for the compound c1ccc2ccccc2c1 ?
Response given: 242000
